# key: entry, value: Papp at 120 min
- Assay method text: Transport studies across Caco-2 cell monolayers
- Protocol conditions: human, Caco-2, pH 7.5
Answer with the number, then the unit.

[[record]]
compound = "COCCc1ccc(OCC(O)CNC(C)C)cc1 (centres unmarked)"
recorded_metric = "Papp at 120 min"
result = "23.2 ×10⁻⁶ cm/s"


Now for another entry.
Q: Find the recorded Papp at 120 min belonging to CC(CCc1ccccc1)NCC(O)c1ccc(O)c(C(N)=O)c1 (centres unmarked) and report it.
Result: 15.9 ×10⁻⁶ cm/s

* * *

- Assay method text: Transport studies across Caco-2 cell monolayers
- Protocol conditions: human, Caco-2, pH 7.5
Recorded metric: Papp A→B at 120 min, 120 μg/ml (×10⁻⁶ cm/s)
All answers are understood in ×10⁻⁶ cm/s, so give the number only.

Q: Find the recorded Papp A→B at 120 min, 120 μg/ml belonging to CC(CCc1ccccc1)NCC(O)c1ccc(O)c(C(N)=O)c1 (stereo not shown) and report it.
Result: 14.2

* * *

- Assay method text: Transport studies across Caco-2 cell monolayers
- Protocol conditions: human, Caco-2, pH 6.5
# key: entry, value: Papp at 120 min
All answers are understood in ×10⁻⁶ cm/s, so give the number only.

[[record]]
compound = "COCCc1ccc(OCC(O)CNC(C)C)cc1 (centres unmarked)"
units = "×10⁻⁶ cm/s"
numeric_result = 9.44


Now for another entry.
Q: Find the recorded Papp at 120 min belonging to CC(CCc1ccccc1)NCC(O)c1ccc(O)c(C(N)=O)c1 (centres unmarked) and report it.
Result: 5.96
